FYI, the data here is from the nanobody polyreactivity screen of Harvey et al. (2022).

Assay remarks: yeast display, Sf9 membrane polyspecificity reagent, FACS + sequencing; frameworks hold sequencing errors
Endpoint name: polyreactivity (PSR sort gate)

These recorded examples may help you get a feel for the data.
- Sequence: "QVQLVESGGGLVQAGGSLRLSCAASGSIFSPYAMGWYRQAPGKERELVAAISYGVGNTYYADSVKGRFTISRDNAKNTVYLQMNSLIPEDTAVYYCAAEEYDYVFPHYFTKGYYWGQGTQVTVSS"
  Measured value: "high polyreactivity"
- Sequence: "QVQLVESGGGLVQAGGSLRLICAASGNTIIRYAIGWFRQAPGKERELVAAISYSGGRTYYADSVKGRFTISRDNAKNTVYLQMNSVKPEDTAVYYCNAASRYGGDYWGQGTQVTVSS"
  Measured value: "low polyreactivity"
- Sequence: "QVQLVESGGGLVQAGGSLRLSCAASGRIFRRYAMGWYRQAPGKEREFVAAITWSGSSTYYADSVKGRFTISRDNAKNTVYLQMNSLKPEDTAVYYCAARHYAVRRSRYPGKLGYYWGQGTQVTVSS"
  Measured value: "high polyreactivity"
- Sequence: "QVQLVESGGGLVQAGGSLRLSCAASGSIFRPNVMGWYRQAPGKERELVAAITGSGGSTYYADSVKGRFTISRDNAKNTVYLQMNSLKPEDTAVYYCNARTVSRGRYTYDYWGQGTQVTVSS"
  Measured value: "low polyreactivity"
- Sequence: "QVQLVESGGGLVQAGGSLRLSCAASGRIFRYYAMGWYRQAPGKERELVAAISDSSGSTYYADSVKGRFTISRDNAKNTVYLQMNSLKPEDTAVYYCRYYFGSGFYYWGQGTQVTVSS"
  Measured value: "high polyreactivity"
- Sequence: "QVQLVESGGGLVQAGGSLRLSCAASGRTFKYYAMGWYRQAPGKERELVAAISRSGGSTYADSVKGRFTISRDNAKNTVYLQMNSLKPEDTAVYYCATGWWRQGVASFDYDYWGQGTQVTVSS"
  Measured value: "high polyreactivity"
- Sequence: "QVQLVESGGGLVQAGGRLRLSGAASGSIYFRNVMGWYRQAPGKERELVAAITWSGGGTYYPDSVKGRFTISRDNAKNTVYLQMNSLQPEDTAFYYCAARSPTIRYGAGYWGQVTQVTVSS"
  Measured value: "low polyreactivity"
- Sequence: "QVQLVESGGGLVQAGGSLRLSCAASGSTFPYYAMGWYRQAPGKERELVAAITSGGSTYYADSVKGRFTISRDNAKNTVYLQMNSLKPEDTAVYYCAARYAPTLSVYRFYYWGQGTQVTVSS"
  Measured value: "high polyreactivity"

Please give measured polyreactivity (PSR sort gate) of the following entry: `QVQLVESGGGLVQGGGSLRLSFAGSGFTFGRYLMGWYSQAPGKERELVAAISRSGGSTHYADSVKGRFTISRDYAMNHFYLQMNSLKPEDTAVYYCAAASPRWPGQGDYWGQGTQVTVSS`
high polyreactivity

Give polyreactivity (PSR sort gate) for `QVQLVESGGGLVQAGGSLRLSCAASGRILWSYAMGWYRQAPGKEREFVAAISRGGGTTYYADSVKGRFTISRDNAKNTVYLQMNSLKPEDTAVYYCNAGDHIRKRYGISATWGYGYGYWGQGTQVTVSS`
high polyreactivity

Supply reported polyreactivity (PSR sort gate) belonging to this sequence: `QVQLEESGGGLVQAGGRLRLSSAASGRTFMPNGMGWYRQAPGKERELVAAISWRGGSTYYADSVKGRFTISRDNAKNTVYLQMNSLKPEDTAVYYCNARVSRQYDYWGQGTEVTVSS`
low polyreactivity
